The entries below are paired with their reported pKd.
molecular target: Galectin-1 (Homo sapiens (Human)); assay: fluorescence anisotropy assay, galectin-1; conditions: inhibition of the interaction between galectin and a fluorescein tagged saccharide probe
Sequence (P09382 whole entry): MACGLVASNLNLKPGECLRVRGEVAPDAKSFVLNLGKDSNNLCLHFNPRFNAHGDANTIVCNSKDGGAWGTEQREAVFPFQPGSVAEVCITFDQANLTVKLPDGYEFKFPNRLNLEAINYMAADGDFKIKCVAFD
Quick note: pKd values are minus log10 of concentrations in mol/L.

Example entries and their recorded answers appear below.
| MOLECULE | ASSAYED TARGET | pKd |
| --- | --- | --- |
| OCC1O[C@@H](S[C@@H]2O[C@H](CO)C(O)C(n3cc(-c4csc(O)n4)nn3)[C@H]2O)C(O)[C@@H](n2cc(-c3cc(F)c(Cl)c(F)c3)nn2)[C@H]1O (stereo partly shown) [Example 2] | Galectin-1 (Homo sapiens (Human)) | 8.40 |
| OCC1O[C@@H](S[C@@H]2O[C@H](CO)C(O)C(n3cc(-c4ccc(Cl)c(F)c4F)nn3)[C@H]2O)C(O)[C@@H](n2cc(-c3ccc(Cl)c(F)c3F)nn2)[C@H]1O (stereo partly shown) [Example 14] | Galectin-1 (Homo sapiens (Human)) | 6.35 |
| OCC1O[C@@H](S[C@@H]2O[C@H](CO)C(O)C(n3cc(-c4csc(O)n4)nn3)[C@H]2O)C(O)[C@@H](n2cc(-c3cc(F)c(F)c(F)c3)nn2)[C@H]1O (stereo partly shown) [Example 1] | Galectin-1 (Homo sapiens (Human)) | 8.52 |

Query molecule follows.
I am curious: what pKd value has been reported for Nc1nc(-c2cn(C3C(O)[C@@H](CO)O[C@@H](S[C@@H]4OC(CO)[C@H](O)[C@H](n5cc(-c6cc(F)c(Cl)c(F)c6)nn5)C4O)[C@@H]3O)nn2)cs1 (stereo partly shown) [Example 3] ?
8.05
